# target_or_test_system: 5HT1A receptors (Rattus norvegicus)
# assay_overview: In vitro binding test, 5HT1A receptors ([3H]-8-OH-DPAT, hippocampus membranes)
# Set-up: The hippocampus of the brains of decapitated rats was immediately frozen; from tissue; host or cells: hippocampus membranes of male Wistar rats; species or system rat (male Wistar)
Listed here are compounds together with their documented Ki.
Field format: number, assumed nM, no unit text.

// known answers, use as guide
smiles_entry | Ki / nM
c1csc(CCN2CCN(c3cccc4c3OCCO4)CC2)c1 | 1.1
c1cc2c(c(N3CCN(CCc4ccsc4)CC3)c1)OCCO2 | 1.2
c1cc2c(c(N3CCN(CCc4cc5ccsc5s4)CC3)c1)OCCO2 | 0.589

Alright, here's another compound for you.
**Query** GET /values?readout=Ki&system=5HT1A receptors (Rattus norvegicus)&item= `c1cc2c(c(N3CCN(CCc4csc5ccccc45)CC3)c1)OCCO2`
**Result** 0.724

###

Quick reference: ED50 of the listed items.
# target_or_test_system: 5HT1A receptors (Rattus norvegicus)
# Sequence (P19327 1-422): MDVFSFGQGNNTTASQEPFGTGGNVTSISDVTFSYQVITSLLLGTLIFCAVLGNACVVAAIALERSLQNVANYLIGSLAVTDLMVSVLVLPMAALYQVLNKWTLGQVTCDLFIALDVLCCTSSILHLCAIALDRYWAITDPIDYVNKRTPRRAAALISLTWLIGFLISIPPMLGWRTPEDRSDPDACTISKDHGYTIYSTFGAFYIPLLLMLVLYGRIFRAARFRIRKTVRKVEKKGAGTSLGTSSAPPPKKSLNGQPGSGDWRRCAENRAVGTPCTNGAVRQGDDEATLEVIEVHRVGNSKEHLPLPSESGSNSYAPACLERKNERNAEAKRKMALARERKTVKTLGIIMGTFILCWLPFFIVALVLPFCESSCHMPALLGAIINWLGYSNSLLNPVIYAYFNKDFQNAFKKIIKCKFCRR
# assay_overview: Flat body posture (FBP), agonist (alone) and antagonist (vs 8-OH-DPAT)
# Assay type: in vivo, rat (male Wistar)
# Design: from tissue; host or cells: whole living male Wistar rats (endogenous receptor)
# experimental_parameters: rat, sc; antagonist test; s.c.; vs 8-OH-DPAT 0.16 mg/kg s.c.; read-out: FBP ID50 (95% CL) + DPAT

Worked set:
compound | ED50
c1cc2c(c(N3CCN(CCc4cccc5ccccc45)CC3)c1)OCCO2 [Example 5] | < 2.5 mg/kg
c1cc2c(c(N3CCN(CCCc4ccsc4)CC3)c1)OCCO2 [Example 1] | 0.48 mg/kg
c1cc2c(c(N3CCN(CCc4ccsc4)CC3)c1)OCCO2 [Example 11] | < 2.5 mg/kg

**Query** Need ED50 of c1cc2c(c(N3CCN(CC4Cc5ccsc5C4)CC3)c1)OCCO2 (racemic) [Example 3] , thanks.
**Result** 1.6 mg/kg

**Query** Please report the recorded ED50 for c1ccc(CCCN2CCN(c3cccc4c3OCCO4)CC2)cc1 [Example 12] .
**Result** < 2.5 mg/kg

###

# target_or_test_system: 5HT1A receptors (Rattus norvegicus, UniProt P19327)
# assay_overview: Corticosterone secretion (CS), agonist (alone) and antagonist (vs 8-OH-DPAT)
# Assay type: in vivo, rat (male Wistar)
# Set-up: from tissue; host or cells: whole living male Wistar rats (endogenous receptor)
# experimental_parameters: rat, sc; antagonist test; s.c.; vs 8-OH-DPAT 0.16 mg/kg s.c.; read-out: CS secretion ID50 (95% CL) + DPAT
# Experimental: The tests were carried out using male Wistar rats weighing 200 to 220 g having free access to their food and to their drinking water in standard cages. […] The CS was determined by a radio-competitive determination for a plasma protein that binds the CS: transcortine. […] The CS base rates in the plasma never being zero, the following formula was used to calculated the percentage inhibition of plasma CS induced by 8-OH-DPAT: [formula] […]
Quick list: ED50 per entry.
Just the number please, in mg/kg, no unit attached.

Example entries begin here.
compound | target_or_test_system | value_reported
c1cc2c(c(N3CCN(CCCc4ccsc4)CC3)c1)OCCO2 | 5HT1A receptors (Rattus norvegicus, UniProt P19327) | 0.43
c1cc2c(c(N3CCN(CCc4ccsc4)CC3)c1)OCCO2 | 5HT1A receptors (Rattus norvegicus, UniProt P19327) | 2.5
c1cc2c(c(N3CCN(CCc4cccc5ccccc45)CC3)c1)OCCO2 | 5HT1A receptors (Rattus norvegicus, UniProt P19327) | 2.5
c1cc2c(c(N3CCN(CC4Cc5ccsc5C4)CC3)c1)OCCO2 (racemic) | 5HT1A receptors (Rattus norvegicus, UniProt P19327) | 1.56

Now for a further compound.
**Query** Could you tell me which ED50 is on file for `c1ccc(CCCN2CCN(c3cccc4c3OCCO4)CC2)cc1` ?
**Result** 2.5

Data credit: patent US5464834A
